System: HCC-2998 colon
Assay: NCI-60 one-dose screen, 48 h
Details: 10 µM unless noted
The panel holds about 83,000 compounds, 20% with a hit somewhere; the sample as a whole holds those more often. The source made the active and inactive calls. Rule for the calls: active = growth percent below 10; inactive = the rest.
Labels: active, inactive

- CC1=NNC(=O)C1C (stereo not given): inactive
- O=C1c2c[n+](Cc3ccccc3)ccc2-c2nc3ccccc3c3ccnc1c23: active
- CN1Cc2c(cc(CN3CCCCC3)n2C)C(c2ccc(Br)cc2)C1 (stereo not given): inactive
- CC[C@]12C=CCN3CC[C@@]4(c5ccc(OC)cc5N(C)[C@H]4[C@@](O)(C(=O)OC)[C@@H]1OC(=O)CCC(=O)N[C@@H](Cc1c[nH]c4ccccc14)C(=O)OC)[C@@H]32: inactive
- COc1cc(NCCCCN=C(N)N)c2ncccc2c1: inactive
- CCCCNc1ccc2c3c1cccc3c(=O)n1c3ccccc3nc21: inactive
- Brc1cccc(-c2nc(-c3ccc4c(c3)OCCO4)co2)c1: inactive
- COc1cccc(/C=C\C(=O)c2ccccc2)c1: inactive
- C[C@@H]1CC[C@@H]2[C@@H]1[C@H](OC(=O)/C=C/c1ccccc1)[C@]1(C3CCCCC3)C[C@@H](OC(=O)CO)[C@@]2(C)O1: inactive
- Cc1csc2ccc(Cl)cc12: inactive

* * *

Tested on: COLO 205 colon
Assay: NCI-60 one-dose screen, 48 h
Settings: 10 µM unless noted
Experimental: Cells are grown in 96 well plates and exposed to the test compound for 48 hours. Compounds are tested at a single concentration, which is 10^-5 M for most compounds. The reported endpoint is percent growth (GI% or GIPRCNT), where numbers from 0 - 100% represent growth inhibition, and numbers from -100% - 0 represent cell death. For example, a value of 40 represents 60% growth inhibition. A value of 0 means no net growth occurred over the course of the experiment. […]
About 83,000 compounds went through this panel and 20% of them were active in at least one assay; those are over-represented in the sample as a whole. Active and inactive are the calls of the source. How the source made its calls: active means growth percent below 10; inactive means the rest.
Classes used: active, inactive

• O=C(O)C(O)C(O)C(=O)O.[NH-]C1CCCCC1[NH-].[Pt+2] (configuration not stated) = inactive
• Oc1cc(O)c2c(=S)cc(-c3ccc(Cl)cc3)oc2c1 = inactive
• O=C1c2cc3c(cc2-c2c1c1cc(Cl)c(Cl)cc1c(=O)n2CCCn1ccnc1)OCO3 = active
• O=C(O)c1cccnc1Br = inactive
• O=C1/C(=C/c2ccc(Cl)c(Cl)c2)CN(C(=O)CCN2CCC(=NO)CC2)C/C1=C\c1ccc(Cl)c(Cl)c1 = active
• C=C1CCC2C3(C)COC(C)(C)OC3CCC2(C)C1C/C=C1/C(=O)OCC1OC(C)=O (configuration not stated) = active
• CCCCCn1cnc2c(=S)nc[nH]c21 = inactive
• CC1=NNC(=O)C1C (configuration not stated) = inactive
• COC(=S)SCN(CSC(=S)OC)c1ccc(Cl)cc1 = inactive
• Cc1nn(-c2nc3ccccc3[nH]2)c2c1C(c1ccc3c(c1)OCO3)CC(=O)N2 (configuration not stated) = inactive
• O=C(Nc1ccc(CN2CCOCC2)cc1)c1[nH]ncc1Nc1ncnc2sccc12 = active
• C=C1C(=O)O[C@H]2[C@H]1CC/C(Cn1cc(Cc3c[nH]c4ccccc34)nn1)=C\CC[C@@]1(C)O[C@@H]21 = active
• Nc1c(C(=O)Nc2cccc3c2OCCO3)sc2nc3c(cc12)CN(Cc1ccccc1)CC3 = inactive
• O=C1C[C@H](N2C(=O)c3ccccc3S2(=O)=O)C2CO[C@@H]1O2 = inactive
• CCC(c1ccc(O)cc1)C(CC)c1ccc(O)c(F)c1 (configuration not stated) = inactive
• O=C(NC(Cc1ccccc1)C(=O)CCl)OCc1ccccc1 (configuration not stated) = inactive
• O=C(Cc1ccccc1)c1ccc(Cl)cc1 = inactive
• CN1C2CCC1/C(=C\c1ccc(Cl)cc1)C1=C2[C@@H](c2ccc(Cl)cc2)C(C#N)=C(N)O1 (some centres not stated) = inactive
• Oc1c(Cl)cc(Cl)cc1CNc1nccnn1 = inactive
• CSc1nc2sc3c(c2c(=O)n1-c1ccc(C(C)C)cc1)CCC(=O)C3 = active
• CCN(CC)CCCC(C)N/C(=C1\C(=O)NC(=O)\C1=C(/NC(C)CCCN(CC)CC)c1cccc(OC)c1)c1cccc(OC)c1 (configuration not stated) = active
• COc1ccc(C(=O)c2sc3nc(-c4ccccc4OC)ccc3c2N)cc1OC = inactive

* * *

growth reference
System: HS 578T breast
Assay: NCI-60 one-dose screen, 48 h (100 = growth as untreated, 0 = no growth, -100 = all killed)
Settings: 10 µM unless noted
Procedure: Growth inhibition of the HS 578T human tumor cell line is measured as a screen for anti-cancer activity. Cells are grown in 96 well plates and exposed to the test compound for 48 hours. Compounds are tested at a single concentration, which is 10^-5 M for most compounds. The reported endpoint is percent growth (GI% or GIPRCNT), where numbers from 0 - 100% represent growth inhibition, and numbers from -100% - 0 represent cell death. For example, a value of 40 represents 60% growth inhibition. […]
The panel holds about 83,000 compounds, 20% with a hit somewhere; the sample as a whole holds those more often.
Measurement Name: growth (%)

- COc1cc(OC)c(/C=C/S(=O)(=O)Cc2cnc(OC)c(N)c2)c(OC)c1: 47.5
- COc1ccc(-c2cc(-c3cccnc3)nc3sc4c(=O)n(-c5ccc(C)cc5)nnc4c23)cc1OC: 93.9
- Cc1ccc2c(c1)O/C(=C\c1cccc(OCC(=O)c3ccccc3)c1)C2=O: 96.6
- COc1ccc(/C=C2\CN(C(=O)CCN3CCC(=NO)CC3)C/C(=C\c3ccc(OC)cc3)C2=O)cc1: 6.95
- O=C(CN1CCN(c2cc3c(cc2F)c(=O)c(C(=O)O)cn3C2CC2)CC1)Nc1cc(=O)[nH]c(=O)[nH]1: 95.6
- COc1cc2c(cc1O)CCc1cc(O)cc(OC)c1-2: 83.3
- CC(C)c1c(C(=O)Nc2ccccc2)c(-c2ccccc2)c(-c2ccc(F)cc2)n1CC[C@@H]1CC=CC(=O)O1: 18.1
- CC1=N/C(=C\c2cccc(Br)c2)C(=O)O1: 107
- CCOC(=O)CC(C)=N: 107
- COc1ccc(-c2cn3c(ccc4ccccc43)n2)cc1: 96.2
- Nc1nc2c(c3ncccc13)C(c1cccc(Br)c1)Cc1ncccc1-2 (stereo not drawn): 37.2
- O=C(CCCCN1CCOCC1)Nc1ccc(Cn2nnc3c2C(=O)c2nnn(Cc4ccc(NC(=O)CCCCN5CCOCC5)cc4)c2C3=O)cc1: 12.5
- CCCCCCCCCCCCCCCCCCNC(=O)[C@H]1CSC(c2ccc(F)c(OC)c2)N1 (stereo partly drawn): -30.7

* * *

Tested on: HOP-92 NSCLC
Assay: NCI-60 one-dose screen, 48 h
Settings: 10 µM unless noted
Compounds without any hit were thinned out: in the full panel of roughly 83,000, 20% have a hit. Activity calls are given as the source filed them. Rule for the calls: active = growth percent below 10; inactive = the rest.
Outcome codes: y = active, n = inactive

• CNCc1cccc2c1OCCOCCOCCN(C)S(=O)(=O)c1ccc(cc1)-c1cnc(N)c(n1)C(=O)N2 = n
• CS(=O)(=O)c1c(Nc2ccccc2)n[nH]c1N = n
• CC(=O)C1=C(O)C=C2Oc3c(C(=O)/C=C/c4ccccc4)c(O)c(C)c(O)c3[C@]2(C)C1=O = n
• Cc1nn(-c2ccccc2)c2nc(C)n(-c3ccc(Br)cc3)c(=O)c12 = n
• CC/C(Cc1ccccc1)=C(/c1ccc(O)cc1)c1ccc(OCCN2CCCC2)cc1 = y
• CCCCCCCCCC(=O)Oc1ccc(/C(=C(/C)c2ccccc2)c2ccc(OCCN3CCCC3)cc2)cc1 = y
• COc1ccc(C(=O)c2sc3nc4c(c(C(F)(F)F)c3c2N)CN(C(C)=O)CC4)cc1OC = y
• NCCN1CCN(c2nccc(-c3ccc4ccccc4c3)n2)CC1 = n
• O=C1Nc2ccccc2/C1=C/C(=N/c1nnc(-c2ccc(Cl)cc2)s1)c1ccccc1 = n
• O=c1ccc2cc3ccccc3cc2[nH]1 = n

* * *

Listed below: growth values for each entry.
Tested on: SN12C renal
Assay: NCI-60 one-dose screen, 48 h (100 = growth as untreated, 0 = no growth, -100 = all killed)
Conditions: 10 µM unless noted
The panel holds about 83,000 compounds, 20% with a hit somewhere; the sample as a whole holds those more often.
Measurement Name: growth (%)

- COc1ccc2nc3cc(Cl)ccc3c(N3CCN(c4nccc(Nc5ccc(Cl)cc5)n4)CC3)c2c1: 74
- CC/C(Cc1ccccc1)=C(/c1ccc(O)cc1)c1ccc(OCCN2CCCC2)cc1: -11.6
- Oc1cccc(Nc2nccc(-c3ccc4ccccc4c3)n2)c1: 33.8
- Cn1c2ccccc2c2c3c(c4c5ccccc5[nH]c4c21)C(=O)N(N)C3=O: 52.2
- Cn1cc(-c2nc(-c3c[nH]c4ccccc34)cs2)c2cccnc21: 52.7
